Molecular target: T1, IFN-γ receptor (IFNGR; IFNGR1 and IFNGR2) on human cells (human, UniProt P15260 18-489; P38484 22-337)
T1 sequence (looked up) 1: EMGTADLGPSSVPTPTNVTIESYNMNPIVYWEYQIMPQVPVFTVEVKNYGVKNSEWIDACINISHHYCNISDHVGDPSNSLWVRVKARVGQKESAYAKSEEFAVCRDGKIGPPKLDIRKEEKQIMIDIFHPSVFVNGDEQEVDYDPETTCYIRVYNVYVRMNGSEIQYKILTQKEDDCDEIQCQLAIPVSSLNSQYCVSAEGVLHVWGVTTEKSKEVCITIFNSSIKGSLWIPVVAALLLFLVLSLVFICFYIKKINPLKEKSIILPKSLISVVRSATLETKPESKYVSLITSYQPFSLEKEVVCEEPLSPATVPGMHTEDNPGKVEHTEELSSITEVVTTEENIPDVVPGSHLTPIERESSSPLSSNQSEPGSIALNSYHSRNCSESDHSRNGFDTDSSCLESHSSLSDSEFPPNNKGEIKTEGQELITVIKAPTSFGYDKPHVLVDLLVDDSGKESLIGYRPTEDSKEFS
T1 sequence (looked up) 2: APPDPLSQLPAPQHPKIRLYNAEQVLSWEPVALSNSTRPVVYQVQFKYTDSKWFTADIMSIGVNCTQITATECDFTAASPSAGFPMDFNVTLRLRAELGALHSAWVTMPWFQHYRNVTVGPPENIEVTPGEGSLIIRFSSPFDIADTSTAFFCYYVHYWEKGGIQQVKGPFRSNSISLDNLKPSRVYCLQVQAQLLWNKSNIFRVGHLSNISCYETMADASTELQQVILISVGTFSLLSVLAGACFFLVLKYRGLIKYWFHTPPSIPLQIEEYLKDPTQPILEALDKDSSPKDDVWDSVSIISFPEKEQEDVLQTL
Assay: cell-based or functional assay
Recorded EC50 (ng/mL)-MFI of pSTAT1, Non-classical monocytes of human PBMCs for the following binders
Answer format: numeric, ng/mL implied, no suffix.

Examples with answers:
# binder, quantitative readout
measured = [
    ("rhIFN-γ-1b (wild-type recombinant human interferon-γ-1b) (ligand, also called wt (rhIFN-γ-1b); WT IFN-γ-1b (Actimmune)) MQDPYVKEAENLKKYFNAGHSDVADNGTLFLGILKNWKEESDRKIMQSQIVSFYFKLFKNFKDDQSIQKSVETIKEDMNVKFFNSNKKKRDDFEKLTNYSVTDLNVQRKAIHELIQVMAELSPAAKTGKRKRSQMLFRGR", 0.26),
    ("Compound 2, mono-mPEG-MAL-20K-rhIFN-γ-1b-M135C (ligand, Cys135 thioether-linked to linear mPEG-maleimide of about 20,000 daltons (mPEG-MAL-20K), succinimide ring closed, also called mPEG-MAL-20K-M135C-IFN-γ; M135C 20K linear) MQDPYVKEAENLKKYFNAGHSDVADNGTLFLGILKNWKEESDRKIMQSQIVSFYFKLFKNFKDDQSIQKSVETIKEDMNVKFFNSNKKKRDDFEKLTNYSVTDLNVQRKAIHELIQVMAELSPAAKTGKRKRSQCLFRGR", 4.57),
    ("Compound 1, mono-mPEG-MAL-10K-rhIFN-γ-1b-M135C (ligand, Cys135 thioether-linked to linear mPEG-maleimide of about 10,000 daltons (mPEG-MAL-10K), succinimide ring closed, also called mPEG-MAL-10K-M135C-IFN-γ; M135C 10K linear) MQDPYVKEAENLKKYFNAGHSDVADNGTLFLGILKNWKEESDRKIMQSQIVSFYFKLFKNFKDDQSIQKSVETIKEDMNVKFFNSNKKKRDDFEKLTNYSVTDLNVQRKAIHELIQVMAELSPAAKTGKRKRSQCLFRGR", 0.99),
]

# evaluate next
// query EC50 (ng/mL)-MFI of pSTAT1, Non-classical monocytes of human PBMCs value for entry Compound 3, mono-mPEG2-ru-MAL-20K-rhIFN-γ-1b-M135C (ring closed) (ligand, Cys135 thioether-linked to branched mPEG2-maleimide of about 20,000 daltons (mPEG2-MAL-20K), succinimide ring closed, also called mPEG2-MAL-20K-M135C-IFN-γ; M135C 20K branched (RC)) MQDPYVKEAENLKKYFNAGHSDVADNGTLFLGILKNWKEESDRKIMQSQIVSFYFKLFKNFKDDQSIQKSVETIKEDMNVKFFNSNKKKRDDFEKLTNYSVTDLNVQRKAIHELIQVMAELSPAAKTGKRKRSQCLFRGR 35

These entries and their values trace back to patent US20250270273A1.
